# Assayed target: Aurora2 (Aurora-A) (Homo sapiens, UniProt O14965)
# Construct: Aurora-A: the full length recombinant protein including an N-terminal poly-histidine tail has been expressed in E. coli; poly-histidine (N)
# Sequence (O14965 1-403): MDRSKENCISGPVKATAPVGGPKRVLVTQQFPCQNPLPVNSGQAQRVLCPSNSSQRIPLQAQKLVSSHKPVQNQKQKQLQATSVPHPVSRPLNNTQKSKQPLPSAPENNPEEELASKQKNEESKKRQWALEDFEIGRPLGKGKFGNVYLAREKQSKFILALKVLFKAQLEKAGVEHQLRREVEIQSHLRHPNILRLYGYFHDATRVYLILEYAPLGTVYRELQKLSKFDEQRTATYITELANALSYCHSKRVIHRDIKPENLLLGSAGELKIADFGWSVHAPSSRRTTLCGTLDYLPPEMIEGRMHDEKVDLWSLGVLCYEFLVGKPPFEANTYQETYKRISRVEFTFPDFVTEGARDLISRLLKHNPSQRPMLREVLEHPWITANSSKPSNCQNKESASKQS
# Experiment description: Aurora 2 (Aurora A) kinase radioactivity scintillation assay using nickel chelate Flash plates
# Protocol conditions: 10 nM Aurora-A, 500 nM NuMA substrate, 1 μM ATP with [33P] ATP, 10 mM MgCl2, 30 minutes, 37° C.
Counter-ions that a name gives are not always drawn.
Metric name: pIC50
Bear in mind: pIC50 is minus log10 of a mol/L concentration; give just that figure.

Solved entries:
Cc1ccc(Oc2cccc(C3C4=C(CNCC4=O)Nc4n[nH]cc43)c2)cc1 (centres unmarked) [Example 11]; 5.95
Cn1c(-c2ccc(Cl)cc2)cnc1Sc1ccc(C2C3=C(CC(C)(C)CC3=O)Nc3n[nH]cc32)o1 (centres unmarked) [Example 93]; 5.87
O=C(Nc1ccc(Cl)cc1)Nc1cccc(C2C3=C(CNCC3=O)Nc3n[nH]cc32)c1 (centres unmarked) [Example 67]; 5.70
CC1(C)CC(=O)C2=C(C1)Nc1n[nH]cc1C2c1ccc(Sc2nc3cc(Cl)ccc3s2)o1 (centres unmarked) [Example 75]; 7.14
CCOC(=O)c1[nH]cc2c1NC1=C(C(=O)CNC1)C2c1ccc(Sc2nc3cc(O)ccc3[nH]2)o1 (centres unmarked) [Example 123, hydrochloride]; 6.09

## Task Retrieve pIC50 measured for CC1(C)CC(=O)C2=C(C1)Nc1n[nH]cc1C2c1ccc(Sc2nc3ccccc3[nH]2)o1 (centres unmarked) [Example 4] and print it.
## Result 7.82

## Task Please report the measured pIC50 for CCOC(=O)c1[nH]cc2c1NC1=C(C(=O)CCC1)C2c1ccc(Sc2nc3cc(OC)ccc3[nH]2)o1 (centres unmarked) [Example 110]
## Result 7.68

## Task Look up and report measured pIC50 for this entry: O=C1CNCC2=C1C(c1ccc(-c3ccc(Cl)cc3)o1)c1c[nH]nc1N2 (centres unmarked) [Example 16]
## Result 5.96
